system_name: Recombinant protein Claudin 18.2
Sequence (chain, as listed by the source limits assumed, form in doubt): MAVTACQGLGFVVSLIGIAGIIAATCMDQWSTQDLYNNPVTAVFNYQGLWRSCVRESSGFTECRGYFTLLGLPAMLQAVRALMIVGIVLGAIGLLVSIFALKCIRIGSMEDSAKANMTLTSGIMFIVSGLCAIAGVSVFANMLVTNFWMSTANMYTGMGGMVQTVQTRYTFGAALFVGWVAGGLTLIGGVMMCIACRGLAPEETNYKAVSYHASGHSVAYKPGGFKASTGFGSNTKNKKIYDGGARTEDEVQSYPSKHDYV
test_description: ELISA on plate-coated recombinant Claudin 18.2, OD370; Kd table under the graph, no unit in the table, unit from the x axis log[antibody] nM
Note to self: Kd under 0.08 nM means 1.0, ties and anything higher get 0.0.

Sample answers from the record:
1) 5G7 (antibody, V domains shown) VH: KVQLQESGPELVRPGTSVKVSCKASKYAFTNYLIEWIKQRPGQGLEWIGMINPGSDGSHYNEKFKGKATLTADKSSSTAYMQLSSLTSDDSAVYFCARVGYGNSFAYWGQGTLVTVSA VL: MTQDELSLTVTAGEKVTLSCKSSQSLLNSGNQRNYLTWYQQKKGQPPKLLIYWASTRESGVPDRLTGSGSGTDFTLTISGVQAEDLAVYYCQNAYYYPFTFGSGTKLEIK | 0.0
2) Anti-CLDN 18.2-15G11 (antibody, V domains shown) VH: VQLQESGGGLVQPGGSRKLSCAASGFSFSSFGMHWVRQAPEKGLEWVAFISSGSSPIYYADTVKGRFTVSRDNPKNTLFLQMTSLRSEDTAMYFCARNYYGNAMDYWGQGSSVTVSS VL: DIMMTQSPLSLTVTAGEKVTMNCKSSQSLLNGGNQKNYLAWYQQKPGQPPKLLIYWASTRESGVPARFTGSGSGTDFTLTINTVQAEDLAVYYCQNDYFYPLTFGTGTKLELK | 1.0
3) 4G3 (antibody, V domains shown) VH: KVQLQQSGGGLVQPGGSRKLSCAASGFTFSSFGMHWVRQAPEKGLEWVGYINSGSSTIYYADTVKGRFTISRDNPRNTLFLQMTSLRSEDTAMYYCASGAYYGNAMDYWGQGTSVTVSS VL: DIVMTQDELSLTVTVGDKVTMNCRSSQSLLNSGNQRNYLTWYQQKPGQPPKLLIYWASTRESGVPDRFTGSGSGTDFTLTISSVQAEDLAVYYCQNVYFYPLTFGTGTKLELK | 0.0

Problem: For the binder Anti-CLDN 18.2-9A1 (antibody, V domains shown) VH: VQLQQSGAELVRPGTSVKVSCKASRYAFTNYLIEWVKQRPGQGLEWIGMINPGSGGTHYNEKFKVKATLTADKSSSTAYMQLSSLTSDDSAVYFCARGGFGNSFAYWGQGTLVTVSA VL: DILLTQSPLSLTVTAGEKVTMSCKSSQSLLNGGNLKNYLTWYQQKPGQPPKLLTYWASTRESGVPVRFTGSGSGTDFTLTISSVQAEDLAVYYCQNGYFYPYTFGGGTKLEIK , is Kd under 0.08 nM? 1.0
